# reported Signal to Background Ratios at 105 Minutes; entries follow
# assay_explanation: Signal strength differences due to reaction pH and buffer composition (hydrogen peroxide, D-cysteine conversion, LDR)
# Assay type: biochemical
# test_conditions: KPO4 pH 9.2, 105 minutes

# chemical_smiles, assay_result
rows = [
    ("CC1(C)OB(/C=C/COc2ccc3nc(C#N)sc3c2)OC1(C)C", 9.1),
]

Reported Signal to Background Ratios at 105 Minutes, compound CC1(C)OB(c2ccc(COc3ccc4nc(C#N)sc4c3)cc2)OC1(C)C : ____ 14.6

Quick one: Signal to Background Ratios at 105 Minutes of CC1(C)OB(c2ccc(COc3ccc4nc(C#N)sc4c3)c3ccccc23)OC1(C)C ? 5.1

What measured Signal to Background Ratios at 105 Minutes goes with CC1(C)OB(c2ccc(COc3ccc4nc(C#N)sc4c3)cc2F)OC1(C)C ? 7.7
